Please provide measured inhibition for the entries that follow.
- Measured On: UniProt Q96RI1
- Sequence (whole entry): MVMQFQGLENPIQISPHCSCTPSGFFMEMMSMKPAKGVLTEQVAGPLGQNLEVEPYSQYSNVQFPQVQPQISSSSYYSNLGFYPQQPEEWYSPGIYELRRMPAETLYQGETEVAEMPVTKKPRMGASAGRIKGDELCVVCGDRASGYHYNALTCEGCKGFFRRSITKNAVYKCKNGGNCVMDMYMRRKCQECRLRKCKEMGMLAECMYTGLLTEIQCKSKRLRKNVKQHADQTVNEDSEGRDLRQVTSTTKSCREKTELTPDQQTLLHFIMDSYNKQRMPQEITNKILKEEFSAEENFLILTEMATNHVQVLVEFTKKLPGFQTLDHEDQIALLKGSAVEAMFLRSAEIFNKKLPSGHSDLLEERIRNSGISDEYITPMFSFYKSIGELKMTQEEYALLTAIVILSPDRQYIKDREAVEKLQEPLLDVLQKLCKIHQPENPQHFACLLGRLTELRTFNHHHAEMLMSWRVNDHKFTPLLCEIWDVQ
- Test: Inhibition of GW4064-induced transactivation of FXR (unknown origin) expressed in HEK293T cells at 40 uM after 16 hrs by beta-lactamase reporter gene assay relative to control
- Assay type: cell-based
- Applied Conditions: HEK-293T
Give bare numbers, in %.

COc1cccc(Cn2cc(CNc3ccc(C)c(S(=O)(=O)N4CCOCC4)c3)c(C(C)C)n2)c1 | 64.8

Please give inhibition, item by item, for the list that follows.
1. O=C(Nc1ccc(S(=O)(=O)N2CCOCC2)cc1)c1cn(-c2ccccc2)nc1-c1ccc(F)cc1
2. Cc1ccc(-c2nn(CCCCO)cc2C(=O)Nc2ccc(C)c(S(=O)(=O)N3CCOCC3)c2)cc1
3. CCN(CC)S(=O)(=O)c1cc(NC(=O)c2cnn(-c3cccnc3)c2)ccc1C

1. 34.7
2. 97.6
3. 24
